Target: T1, EBOV VLP (Ebola virus (EBOV), UniProt Q05320 33-676)
T1 sequence: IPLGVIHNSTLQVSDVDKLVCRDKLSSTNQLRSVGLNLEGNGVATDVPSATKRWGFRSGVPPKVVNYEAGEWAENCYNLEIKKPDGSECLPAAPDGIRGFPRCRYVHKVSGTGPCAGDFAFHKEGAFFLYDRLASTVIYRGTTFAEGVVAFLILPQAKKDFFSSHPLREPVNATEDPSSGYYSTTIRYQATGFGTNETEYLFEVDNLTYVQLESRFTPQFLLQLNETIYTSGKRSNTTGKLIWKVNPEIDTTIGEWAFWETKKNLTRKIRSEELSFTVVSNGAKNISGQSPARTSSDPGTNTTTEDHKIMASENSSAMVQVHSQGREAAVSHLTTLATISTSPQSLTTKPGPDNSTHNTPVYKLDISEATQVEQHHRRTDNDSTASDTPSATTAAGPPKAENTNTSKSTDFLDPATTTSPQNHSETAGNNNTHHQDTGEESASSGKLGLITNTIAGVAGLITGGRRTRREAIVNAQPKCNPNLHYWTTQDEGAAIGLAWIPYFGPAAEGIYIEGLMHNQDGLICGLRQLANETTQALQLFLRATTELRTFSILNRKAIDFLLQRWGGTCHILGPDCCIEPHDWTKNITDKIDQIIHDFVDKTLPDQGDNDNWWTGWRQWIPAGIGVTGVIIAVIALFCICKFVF
Test: ELISA
assay endpoint: pEC50
One number for each entry, as −log10 of the molar value.

These solved cases illustrate the format of a correct answer.
binder	assay endpoint	measurement
FVM09 (antibody, V domains shown) VH: EVQLVQSGAEVKRPGESLTISCKTSGYSFTDSWVAWVRQMPGKGLEWLGSIYPGDSETKYNPSFQGHVTISADKSVTTTYLKWSSLKASDTATYYCVKGSETWGQGVLVTVSS VL: QLVLTQPASLSASPGASASLTCTFSGGINVAGYNILWYQQKAGSPPRYLLRYKSDSTKDQGSGVPSRFSGSKDASANTGILRISGLQSEDEADYYCAIGHSSGWIFGGGTRLTVL	pEC50	7.62
FVM11 (antibody, V domains shown) VH: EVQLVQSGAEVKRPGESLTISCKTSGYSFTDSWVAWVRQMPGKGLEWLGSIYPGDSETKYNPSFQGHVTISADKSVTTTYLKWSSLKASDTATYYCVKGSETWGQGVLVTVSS VL: NFMLTQPASLSASPGASASLTCTFSGGINVAGYNILWYQQKAGSPPRYLLRYKSDSTKDQGSGVPSRFSGSKDASANTGILRISGLQSEDEADYYCAIGHSSGWIFGGGTRLTVL	pEC50	9.66
FVM24 (antibody, V domains shown) VH: EVQLVQSGAEVKRPGESLKISCKTSGYSFTDSWVAWVRQMPGKGLEWMGSIYPGDFQTRYNPSFQGHVTLSADKSISTTYLQWSSLKASDTATYYCVKGSETWGPGVLVTVSS VL: SSGLTQPASLSASPGASASLTCTFSGGINVAGYNILWYQQKAGSPPRYLLRYKSDSTKDQGSGVPSRFSGSKDVSANTGILRISGLQSDDEADYYCAIGHSSGWIFGGGTRLTVL	pEC50	9.29

# per-item lookup of pEC50; items listed below
1. FVM07 (antibody, V domains shown) VH: EVQLVQSGAEVKRPGESLTISCKTSGYSFTDSWIGWVRQMPGKGLEWMGSIYPGDSDTKYNPSFQGHVTISADKSISTTYLQWSSLKASDTATYYCVAREAYWGQGVLVTVSS VL: QPVLTQPASLSASPGASASLTCTFSGGINVAGYHIFWYQQKPGSPPRYLLRYKSDSDKGQGSGVPSRFSGSKDASANTGILRISGLQSEDEADYYCAIGHSSGVLFGGGTRLTVL
2. FVM17 (antibody, V domains shown) VH: EVQLVQSGAEVKRPGESLTISCKTSGYSFTDSWISWVRQMPGKGLEWMGSIYPGDSDARYNPSFQGHVTISADKSISTTYLKWSSLKASDTATYYCVKGSETWGQGVLVTVSS VL: QAVVTQPASLSASPGTSASLTCTFSGGINVAGYNILWYQQKPGSPPRFLLRYKSDSDNVQGSGVPSHFSGSKDASANTGILRISGLQSEDEADYYCAIGHSSGWIFGGGTRLTVL

1: 8.77; 2: 9.12
